Sourced from patent US20250215039A1

Test system: cancer cell lines
methodSummary: Cancer cell proliferation activity (CellTiterGlo, 72 h)
Assay type: cell-based
experimentalSetup: Homo sapiens, EJ-28, 72 h, EJ28 (bladder), 72 h; read-out: IC50 cell proliferation
Listed below: pIC50 values for each entry.
pIC50 (log units): -log10 of the concentration in mol/L.

Example compounds with recorded pIC50:
{"inputSmiles": "Nc1nc(=O)n([C@H]2C[C@H](O)[C@](CO)(CF)O2)cc1F", "testResult": 7.18}
{"inputSmiles": "Nc1nc(F)nc2c1ncn2[C@@H]1O[C@H](CO)[C@@H](O)[C@@H]1O", "testResult": 4.98}
{"inputSmiles": "Nc1nc(F)nc2c1ncn2[C@@H]1O[C@H](CO)[C@@H](O)[C@H]1O", "testResult": 7.52}
{"inputSmiles": "C[C@]1(CO)O[C@@H](n2cnc3c(N)nc(F)nc32)[C@H](O)[C@@H]1O", "testResult": 7.22}
{"inputSmiles": "CCC[C@]1(CO)O[C@@H](n2cnc3c(N)nc(F)nc32)[C@H](O)[C@@H]1O", "testResult": 6.85}

[ask] Can you look up the measured pIC50 of C[C@]1(CO)O[C@@H](n2ccc(N)nc2=O)[C@@H](O)[C@@H]1O for me?
[reply] 5.35

[ask] Can you look up the measured pIC50 of Nc1nc(F)nc2c1ncn2[C@H]1C[C@H](O)[C@@H](CO)O1 for me?
[reply] 5.97

[ask] Can you look up the measured pIC50 of Nc1nc(=O)n([C@H]2C[C@H](O)[C@@H](CO)O2)cc1F for me?
[reply] 8.40

* * *

Listed below: IC50 values for each entry.
Test system: cancer cell lines
methodSummary: Cancer cell proliferation activity (CellTiterGlo, 72 h)
Format: cell-based
experimentalSetup: Homo sapiens, MG-63, 72 h, MG63 cell line (bone), 72 h; read-out: IC50

Example compounds with recorded IC50:
{"inputSmiles": "C[C@]1(CO)O[C@@H](n2cc(F)c(=O)[nH]c2=O)C[C@@H]1O", "IC50": "1.81 µM"}
{"inputSmiles": "Cc1cn([C@H]2C[C@H](O)[C@@](C#N)(CO)O2)c(=O)[nH]c1=O", "IC50": "> 50 µM"}
{"inputSmiles": "CC(C)C[C@]1(CO)O[C@@H](n2cnc3c(N)nc(F)nc32)C[C@@H]1O", "IC50": "> 50 µM"}
{"inputSmiles": "C=C[C@]1(CO)O[C@@H](Nc2[nH]c(=O)ncc2Br)C[C@@H]1O", "IC50": "3.93 µM"}
{"inputSmiles": "CC[C@]1(CO)O[C@@H](n2cnc3c(N)nc(F)nc32)[C@H](O)[C@@H]1O", "IC50": "2.36 µM"}

[ask] Can you look up the measured IC50 of C[C@]1(CO)O[C@@H](n2cnc3c(N)nc(F)nc32)C[C@@H]1O for me?
[reply] > 50 µM

[ask] Can you look up the measured IC50 of C[C@]1(CO)O[C@@H](n2cc(F)c(N)nc2=O)C[C@@H]1O for me?
[reply] 0.68 µM

[ask] Can you look up the measured IC50 of Nc1nc(F)nc2c1ncn2[C@H]1C[C@H](O)[C@](CO)(CF)O1 for me?
[reply] > 50 µM

[ask] Can you look up the measured IC50 of COC[C@]1(CO)O[C@@H](n2cnc3c(N)nc(F)nc32)C[C@@H]1O for me?
[reply] > 50 µM

[ask] Can you look up the measured IC50 of CCC[C@]1(CO)O[C@@H](n2cnc3c(N)nc(F)nc32)C[C@@H]1O for me?
[reply] > 50 µM

[ask] Can you look up the measured IC50 of CC[C@]1(CO)O[C@@H](n2cc(F)c(N)nc2=O)C[C@@H]1O for me?
[reply] > 50 µM

* * *

Listed below: IC50 values for each entry.
System: cancer cell lines
methodSummary: Cancer cell proliferation activity (CellTiterGlo, 72 h)
Format: cell-based
experimentalSetup: Homo sapiens, SAOS-2, 72 h, SAOS2 cell line (bone), 72 h; read-out: IC50
Write the number in nM without appending the unit.

Example compounds with recorded IC50:
{"compound": "N#C[C@]1(CO)O[C@@H](n2cc(F)c(N)nc2=O)C[C@@H]1O", "testResult": 2050}
{"compound": "C[C@]1(CO)O[C@@H](n2cnc3c(N)nc(F)nc32)C[C@@H]1O", "testResult": 270}
{"compound": "O=c1[nH]c(=O)n([C@H]2C[C@H](O)[C@](CO)(CF)O2)cc1F", "testResult": 6600}
{"compound": "COC[C@]1(CO)O[C@@H](n2cnc3c(N)nc(F)nc32)C[C@@H]1O", "testResult": 360}
{"compound": "C[C@]1(CO)O[C@@H](n2cc(F)c(=O)[nH]c2=O)C[C@@H]1O", "testResult": 1140}
{"compound": "Nc1ccn([C@@H]2O[C@H](CO)[C@@H](O)C2(F)F)c(=O)n1 [gemcitabine, reference compound]", "testResult": 0.5}
{"compound": "CCC[C@]1(CO)O[C@@H](n2cnc3c(N)nc(F)nc32)C[C@@H]1O", "testResult": 300}
{"compound": "CC[C@]1(CO)O[C@@H](n2cnc3c(N)nc(F)nc32)C[C@@H]1O", "testResult": 640}
{"compound": "Nc1nc(F)nc2c1ncn2[C@H]1C[C@H](O)[C@](CO)(CF)O1", "testResult": 3560}
{"compound": "C[C@]1(CO)O[C@@H](n2cc(F)c(N)nc2=O)C[C@@H]1O", "testResult": 90}

[ask] Can you look up the measured IC50 of CC[C@]1(CO)O[C@@H](n2cnc3c(N)nc(F)nc32)[C@H](O)[C@@H]1O for me?
[reply] 100

[ask] Can you look up the measured IC50 of C=C[C@]1(CO)O[C@@H](Nc2[nH]c(=O)ncc2Br)C[C@@H]1O for me?
[reply] 1700

[ask] Can you look up the measured IC50 of CC(C)C[C@]1(CO)O[C@@H](n2cnc3c(N)nc(F)nc32)C[C@@H]1O for me?
[reply] 4320

* * *

Tested on: cancer cell lines
methodSummary: Cancer cell proliferation activity (CellTiterGlo, 72 h)
Type: cell-based
experimentalSetup: Homo sapiens, MHH-ES-1, 72 h, MHHES1 (bone), 72 h; read-out: IC50 cell proliferation
pIC50: −log10 of the molar value.
Kind request: treat 6 as inclusive, so pIC50 at 6 or higher is TRUE, anything lower is FALSE.

// known answers, use as guide
{"inputSmiles": "Nc1nc(F)nc2c1ncn2[C@@H]1O[C@H](CO)[C@@H](O)[C@H]1O", "targetUnderTest": "cancer cell lines", "categoryLabel": "TRUE"}
{"inputSmiles": "CCC[C@]1(CO)O[C@@H](n2cnc3c(N)nc(F)nc32)[C@H](O)[C@@H]1O", "targetUnderTest": "cancer cell lines", "categoryLabel": "TRUE"}
{"inputSmiles": "Nc1nc(=O)n([C@H]2C[C@H](O)[C@](CO)(CF)O2)cc1F", "targetUnderTest": "cancer cell lines", "categoryLabel": "FALSE"}
{"inputSmiles": "C[C@]1(CO)O[C@@H](n2ccc(N)nc2=O)[C@@H](O)[C@@H]1O", "targetUnderTest": "cancer cell lines", "categoryLabel": "FALSE"}

[ask] Dear colleague, could you confirm whether Nc1nc(=O)n([C@H]2C[C@H](O)[C@@H](CO)O2)cc1F has pIC50 at or above 6?
[reply] TRUE

[ask] Dear colleague, could you confirm whether C[C@]1(CO)O[C@@H](n2ccc(N)nc2=O)C(F)(F)[C@@H]1O has pIC50 at or above 6?
[reply] FALSE

[ask] Dear colleague, could you confirm whether Nc1nc(F)nc2c1ncn2[C@@H]1O[C@H](CO)[C@@H](O)[C@@H]1O has pIC50 at or above 6?
[reply] FALSE

[ask] Dear colleague, could you confirm whether C[C@]1(CO)O[C@@H](n2cnc3c(N)nc(F)nc32)[C@H](O)[C@@H]1O has pIC50 at or above 6?
[reply] TRUE

[ask] Dear colleague, could you confirm whether Nc1nc(F)nc2c1ncn2[C@H]1C[C@H](O)[C@@H](CO)O1 has pIC50 at or above 6?
[reply] TRUE

* * *

Test system: cancer cell lines
methodSummary: Cancer cell proliferation activity (CellTiterGlo, 72 h)
Type: cell-based
experimentalSetup: Homo sapiens, A2780, 72 h, A2780 cell line (ovary), 72 h; read-out: IC50
pIC50: −log10 of the molar value.
Kind request: treat 6 as inclusive, so pIC50 at 6 or higher is criterion met, anything lower is criterion not met.

[ask] Dear colleague, could you confirm whether Nc1nc(F)nc2c1ncn2[C@H]1C[C@H](O)[C@](CO)(CF)O1 [compound 150] has pIC50 at or above 6?
[reply] criterion not met

[ask] Dear colleague, could you confirm whether O=c1[nH]c(=O)n([C@H]2C[C@H](O)[C@](CO)(CF)O2)cc1F [Cpd. No. 112] has pIC50 at or above 6?
[reply] criterion not met

[ask] Dear colleague, could you confirm whether C[C@]1(CO)O[C@@H](n2cc(F)c(=O)[nH]c2=O)C[C@@H]1O [Cpd. No. 105] has pIC50 at or above 6?
[reply] criterion not met

[ask] Dear colleague, could you confirm whether N#C[C@]1(CO)O[C@@H](n2cc(F)c(N)nc2=O)C[C@@H]1O [Cpd. No. 6] has pIC50 at or above 6?
[reply] criterion not met

[ask] Dear colleague, could you confirm whether Cc1cn([C@H]2C[C@H](O)[C@@](C#N)(CO)O2)c(=O)[nH]c1=O [Cpd. No. 123] has pIC50 at or above 6?
[reply] criterion not met

[ask] Dear colleague, could you confirm whether CC(C)C[C@]1(CO)O[C@@H](n2cnc3c(N)nc(F)nc32)C[C@@H]1O [Cpd. No. 133] has pIC50 at or above 6?
[reply] criterion not met

[ask] Dear colleague, could you confirm whether CC[C@]1(CO)O[C@@H](n2cc(F)c(N)nc2=O)C[C@@H]1O [Cpd. No. 2] has pIC50 at or above 6?
[reply] criterion not met

[ask] Dear colleague, could you confirm whether C=C[C@]1(CO)O[C@@H](Nc2[nH]c(=O)ncc2Br)C[C@@H]1O [Cpd. No. 3] has pIC50 at or above 6?
[reply] criterion not met

[ask] Dear colleague, could you confirm whether CC[C@]1(CO)O[C@@H](n2cnc3c(N)nc(F)nc32)[C@H](O)[C@@H]1O [Cpd. No. 173] has pIC50 at or above 6?
[reply] criterion met

[ask] Dear colleague, could you confirm whether Nc1ccn([C@@H]2O[C@H](CO)[C@@H](O)C2(F)F)c(=O)n1 [gemcitabine, reference compound] has pIC50 at or above 6?
[reply] criterion met
